test target: HLA-A*24:02
assay notes: IEDB peptide-MHC binding, purified MHC/competitive/radioactivity; filed as Kd, often an IC50 or EC50 that approximates it; bounds were set here for any values at or beyond the usual limits of such assays
run conditions: source organism: Homo sapiens
pKd: −log10 of the molar value.
quantity name: pKd

I = NYKHCFPEI
II = SYVKVLEYVI
Q. Consider I and II . Which of these has its pKd at a higher number? Select an item and report its label.
A. I
(I: 8.60, II: 6.48)

I = IMPKTGFLI
II = IMPKTGFLII
Q. Consider I and II . Which of these has its pKd at a higher number? Select an item and report its label.
A. I

====

test target: HLA-A*02:01
assay notes: IEDB peptide-MHC binding, purified MHC/competitive/radioactivity; bounds were set here for any values at or beyond the usual limits of such assays
run conditions: source organism: Homo sapiens
quantity name: IC50 (nM)

IMPKTGFLI    649
RALAETSYV    500

1 = KVADLVGFL
2 = GLLGDNQIM
Q. Consider 1 and 2 . Which of these has its IC50 at a higher number? Select an item and report its label.
A. 2
(2: 980 nM, 1: 575 nM)

====

test target: HLA-A*11:01
assay notes: IEDB peptide-MHC binding, purified MHC/competitive/radioactivity; filed as Kd, often an IC50 or EC50 that approximates it; bounds were set here for any values at or beyond the usual limits of such assays
run conditions: source organism: Homo sapiens
quantity name: Kd (nM)

Worked cases, answers included:
TSCILESLFR    393
LLTQDLVQEK    36.9
ADLVGFLLLK    20.3
LSVMEVYDGR    492

1 = TTINFTRQR
2 = LVQEKYLEY
3 = SLEQRSLHCK
4 = RALAETSYVK
Q. Sort (4 sequences) by Kd: min first. Please, when replying, give the labels in the order that was requested.
A. 1, 4, 2, 3

1 = SVMEVYDGR
2 = MLESVIKNYK
3 = LTQDLVQEK
Q. Sort (3 sequences) by Kd: min first. Please, when replying, give the labels in the order that was requested.
A. 1, 3, 2

1 = ALAETSYVK
2 = SLFRAVITKK
Q. Consider 1 and 2 . Which of these has its Kd at a higher number? Select an item and report its label.
A. 1
(1: 16.4 nM, 2: 6 nM)
